assay_remarks: Cytotoxicity against human HEL cells assessed as inhibition of cell viability by colorimetric formazan-based MTS assay
measurement_label: CC50 (µM)

INSERT INTO assay_data (molecule, unit_tag, result_modifier, numeric_value) VALUES
  ('CSc1nc(NCCCCNc2ccnc3cc(Cl)ccc23)c(C#N)c(-c2ccccc2)n1', 'µM', '=', 8.2),
  ('CSc1nc(NCCCNc2ccnc3cc(Cl)ccc23)c(C#N)c(-c2ccccc2)n1', 'µM', '=', 43.4),
  ('COc1ccc(-c2nc(SC)nc(NCCCCNc3ccnc4cc(Cl)ccc34)c2C#N)cc1', 'µM', '=', 7.9),
  ('CSc1nc(NCCCCNc2ccnc3cc(Cl)ccc23)c(C#N)c(-c2ccc([N+](=O)[O-])cc2)n1', 'µM', '=', 1.7),
  ('COc1ccc(-c2nc(SC)nc(NCCCCNc3ccnc4cc(Cl)ccc34)c2C#N)cc1OC', 'µM', '=', 84.1),
  ('N#Cc1c(NCCCCNc2ccnc3cc(Cl)ccc23)nc(N2CCOCC2)nc1-c1ccccc1', 'µM', '=', 11.9),
  ('CSc1nc(NCCCCNc2ccnc3cc(Cl)ccc23)c(C#N)c(-c2cccc([N+](=O)[O-])c2)n1', 'µM', '=', 4.2),
  ('CSc1nc(-c2ccccc2)c(C#N)c(N2CCN(c3ccnc4cc(Cl)ccc34)CC2)n1', 'µM', '>', 100),
  ('CCN(CC)CCCC(C)Nc1ccnc2cc(Cl)ccc12 (centres undefined) [CHLOROQUINE]', 'µM', '=', 58.5);

* * *

Test system: Vesicular stomatitis virus
assay_remarks: microbe, parasite or virus in culture
condition_info: HEL
pEC50: −log10 of the molar value.
measurement_label: pEC50

INSERT INTO measurements (compound, result) VALUES
  ('CSc1nc(NCCCCNc2ccnc3cc(Cl)ccc23)c(C#N)c(-c2ccc(C)cc2)n1', '< 5.40'),
  ('CCN(CC)CCCC(C)Nc1ccnc2cc(Cl)ccc12 (stereo not given) [CHLOROQUINE]', '< 4.70'),
  ('CSc1nc(NCCCCNc2ccnc3cc(Cl)ccc23)c(C#N)c(-c2ccc([N+](=O)[O-])cc2)n1', '< 6.10'),
  ('Nc1nc2c(ncn2COCCO)c(=O)[nH]1 [ACYCLOVIR]', '< 3.60'),
  ('COc1cc(-c2nc(SC)nc(NCCCCNc3ccnc4cc(Cl)ccc34)c2C#N)cc(OC)c1OC', '< 6.10');

* * *

System: CCRF-CEM
assay_remarks: Cytotoxicity against human CEM cells assessed as inhibition of cell proliferation by Coulter counter analysis
Assay type: cell-based
pIC50: −log10 of the molar value.
measurement_label: pIC50

INSERT INTO assay_data (compound, result_modifier, numeric_value) VALUES
  ('CSc1nc(-c2ccc([N+](=O)[O-])cc2)c(C#N)c(N2CCN(c3ccnc4cc(Cl)ccc34)CC2)n1', '=', 3.81),
  ('COc1ccc(-c2nc(SC)nc(NCCCCNc3ccnc4cc(Cl)ccc34)c2C#N)cc1OC', '=', 4.80),
  ('CSc1nc(NCCCNc2ccnc3cc(Cl)ccc23)c(C#N)c(-c2ccccc2)n1', '=', 5.33),
  ('CSc1nc(NCCCCNc2ccnc3cc(Cl)ccc23)c(C#N)c(-c2ccccc2)n1', '=', 5.28),
  ('CSc1nc(-c2ccccc2)c(C#N)c(N2CCN(c3ccnc4cc(Cl)ccc34)CC2)n1', '<', 3.60),
  ('CCN(CC)CCCC(C)Nc1ccnc2cc(Cl)ccc12 (stereo not drawn)', '=', 4.64),
  ('COc1cc(-c2nc(SC)nc(NCCCCNc3ccnc4cc(Cl)ccc34)c2C#N)cc(OC)c1OC', '=', 5.44),
  ('CSc1nc(NCCCCNc2ccnc3cc(Cl)ccc23)c(C#N)c(-c2cccc([N+](=O)[O-])c2)n1', '=', 5.68),
  ('COc1ccc(-c2nc(SC)nc(NCCCCNc3ccnc4cc(Cl)ccc34)c2C#N)cc1', '=', 5.57),
  ('N#Cc1c(NCCCCNc2ccnc3cc(Cl)ccc23)nc(N2CCOCC2)nc1-c1ccccc1', '=', 5.34),
  ('CSc1nc(NCCCCNc2ccnc3cc(Cl)ccc23)c(C#N)c(-c2ccc([N+](=O)[O-])cc2)n1', '=', 6.12),
  ('CSc1nc(OCCCNc2ccnc3cc(Cl)ccc23)c(C#N)c(-c2ccccc2)n1', '=', 5.48),
  ('CSc1nc(NCCCCNc2ccnc3cc(Cl)ccc23)c(C#N)c(-c2ccc(C)cc2)n1', '=', 5.31);

* * *

The entries below are paired with their reported EC50.
Tested on: Human alphaherpesvirus 1
Type: functional, cell-based
condition_info: Human alphaherpesvirus 1, KOS, HEL
measurement_label: EC50

INSERT INTO assay_data (smiles_repr, result) VALUES
  ('Nc1nc2c(ncn2COCCO)c(=O)[nH]1', '10 µM'),
  ('COc1ccc(-c2nc(SC)nc(NCCCCNc3ccnc4cc(Cl)ccc34)c2C#N)cc1OC', '> 100 µM'),
  ('CSc1nc(NCCCCNc2ccnc3cc(Cl)ccc23)c(C#N)c(-c2cccc([N+](=O)[O-])c2)n1', '> 4 µM'),
  ('N#Cc1c(NCCCCNc2ccnc3cc(Cl)ccc23)nc(N2CCOCC2)nc1-c1ccccc1', '> 4 µM'),
  ('CSc1nc(NCCCCNc2ccnc3cc(Cl)ccc23)c(C#N)c(-c2ccc([N+](=O)[O-])cc2)n1', '> 0.8 µM'),
  ('CSc1nc(NCCCCNc2ccnc3cc(Cl)ccc23)c(C#N)c(-c2ccccc2)n1', '> 0.8 µM'),
  ('CSc1nc(NCCCCNc2ccnc3cc(Cl)ccc23)c(C#N)c(-c2ccc(C)cc2)n1', '> 4 µM'),
  ('COc1ccc(-c2nc(SC)nc(NCCCCNc3ccnc4cc(Cl)ccc34)c2C#N)cc1', '> 0.8 µM'),
  ('COc1cc(-c2nc(SC)nc(NCCCCNc3ccnc4cc(Cl)ccc34)c2C#N)cc(OC)c1OC', '> 0.8 µM');

* * *

The entries below are paired with their reported CC50.
assay_remarks: Cytotoxicity against MDCK cells assessed as inhibition of cell viability by colorimetric formazan-based MTS assay
Parameters: species or system Canis lupus familiaris
condition_info: dog
measurement_label: CC50 (µM)

INSERT INTO results (smiles_repr, unit_tag, result_modifier, numeric_value) VALUES
  ('CSc1nc(NCCCNc2ccnc3cc(Cl)ccc23)c(C#N)c(-c2ccccc2)n1', 'µM', '=', 10.3),
  ('CSc1nc(-c2ccccc2)c(C#N)c(N2CCN(c3ccnc4cc(Cl)ccc34)CC2)n1', 'µM', '>', 100),
  ('CSc1nc(OCCCNc2ccnc3cc(Cl)ccc23)c(C#N)c(-c2ccccc2)n1', 'µM', '=', 2.1),
  ('N#Cc1c(NCCCCNc2ccnc3cc(Cl)ccc23)nc(N2CCOCC2)nc1-c1ccccc1', 'µM', '=', 10.9),
  ('CSc1nc(NCCCCNc2ccnc3cc(Cl)ccc23)c(C#N)c(-c2cccc([N+](=O)[O-])c2)n1', 'µM', '=', 9.6);

* * *

System: Human betaherpesvirus 5
Assay type: functional, cell-based
condition_info: Human betaherpesvirus 5, AD169, HEL
measurement_label: EC50

INSERT INTO results (compound, result) VALUES
  ('CSc1nc(OCCCNc2ccnc3cc(Cl)ccc23)c(C#N)c(-c2ccccc2)n1', '> 0.8 µM'),
  ('Nc1nc2c(ncn2COCCO)c(=O)[nH]1', '1.24 µM'),
  ('CSc1nc(-c2ccccc2)c(C#N)c(N2CCN(c3ccnc4cc(Cl)ccc34)CC2)n1', '> 20 µM'),
  ('COc1ccc(-c2nc(SC)nc(NCCCCNc3ccnc4cc(Cl)ccc34)c2C#N)cc1OC', '> 20 µM'),
  ('CSc1nc(-c2ccc([N+](=O)[O-])cc2)c(C#N)c(N2CCN(c3ccnc4cc(Cl)ccc34)CC2)n1', '> 100 µM'),
  ('CCN(CC)CCCC(C)Nc1ccnc2cc(Cl)ccc12 (centres undefined)', '> 20 µM'),
  ('COc1ccc(-c2nc(SC)nc(NCCCCNc3ccnc4cc(Cl)ccc34)c2C#N)cc1', '> 4 µM'),
  ('COc1cc(-c2nc(SC)nc(NCCCCNc3ccnc4cc(Cl)ccc34)c2C#N)cc(OC)c1OC', '> 4 µM'),
  ('N#Cc1c(NCCCCNc2ccnc3cc(Cl)ccc23)nc(N2CCOCC2)nc1-c1ccccc1', '> 4 µM');

* * *

The entries below are paired with their reported MCC.
assay_remarks: Cytotoxicity against human HEL cells assessed as alteration of normal cell morphology by microscopic analysis
Format: cell-based
measurement_label: MCC

INSERT INTO assay_data (compound, result) VALUES
  ('CCN(CC)CCCC(C)Nc1ccnc2cc(Cl)ccc12 (stereo not given) [CHLOROQUINE]', '≥ 20 µM'),
  ('CSc1nc(-c2ccc([N+](=O)[O-])cc2)c(C#N)c(N2CCN(c3ccnc4cc(Cl)ccc34)CC2)n1', '≥ 100 µM'),
  ('CSc1nc(NCCCCNc2ccnc3cc(Cl)ccc23)c(C#N)c(-c2ccc(C)cc2)n1', '20 µM'),
  ('Nc1nc2c(ncn2COCCO)c(=O)[nH]1 [ACYCLOVIR]', '250 to 400 µM'),
  ('CSc1nc(-c2ccccc2)c(C#N)c(N2CCN(c3ccnc4cc(Cl)ccc34)CC2)n1', '≥ 100 µM');

All values here come from ChEMBL document CHEMBL4000146.
